- TESTED TARGET: Beta-1 adrenergic receptor (Cavia porcellus, UniProt B0FL73)
- METHOD SUMMARY: Antagonistic activity against beta-1 adrenergic receptor of isolated guinea pig atria
- Assay type: functional
- EXPERIMENTAL CONDITIONS: read-out: pA2 (converted)
MEASUREMENT LABEL: Kb (µM)
Give just the numeric value; µM need not be written.

// known answers, use as guide
[
  {
    "MOLECULE": "CC(C)NCC(O)CON=C(C(C)C)C(C)C (stereo unspecified)",
    "MEASUREMENT LABEL": "Kb",
    "VALUE UNIT": "µM",
    "ENDPOINT VALUE": 17
  },
  {
    "MOLECULE": "CCCC(CCC)=NOCC(O)CNC(C)C (stereo unspecified)",
    "MEASUREMENT LABEL": "Kb",
    "VALUE UNIT": "µM",
    "ENDPOINT VALUE": 20.9
  },
  {
    "MOLECULE": "CCC(CC)=NOCC(O)CNC(C)(C)C (stereo unspecified)",
    "MEASUREMENT LABEL": "Kb",
    "VALUE UNIT": "µM",
    "ENDPOINT VALUE": 1.26
  },
  {
    "MOLECULE": "CC(C)(C)NCC(O)CON=C1CCCC1 (stereo unspecified)",
    "MEASUREMENT LABEL": "Kb",
    "VALUE UNIT": "µM",
    "ENDPOINT VALUE": 53.7
  },
  {
    "MOLECULE": "CCCC(CCC)=NOCC(O)CNC(C)(C)C (stereo unspecified)",
    "MEASUREMENT LABEL": "Kb",
    "VALUE UNIT": "µM",
    "ENDPOINT VALUE": 4.68
  }
]

Data request: Look up Kb for this molecule: CC(C)NCC(O)CON=C1CCCC1 (stereo unspecified)
Data returned: 24.5

Data request: Recorded Kb of CC(C)(C)NCC(O)CON=C1CCCCC1 (stereo unspecified) , please.
Data returned: 8.32

Data request: Give its Kb value. Item: COc1ccc(OC)c(C(O)C(C)NC(C)(C)C)c1 (stereo unspecified) [BUTOXAMINE]
Data returned: 44.7

Data request: Consider the molecule CC(C)NCC(O)CON=C1CCCCC1 (stereo unspecified) and give its measured Kb.
Data returned: 20

Data request: GET /values?readout=Kb&item= CC(C)C(=NOCC(O)CNC(C)(C)C)C(C)C (stereo unspecified)
Data returned: 14.5

Data request: Which Kb reading was recorded for the molecule CCC(CC)=NOCC(O)CNC(C)C (stereo unspecified) ?
Data returned: 0.955

----------
- TESTED TARGET: Beta-2 adrenergic receptor (Cavia porcellus)
- METHOD SUMMARY: Antagonistic activity against beta-2 adrenergic receptor of isolated guinea pig tracheal strips
- Assay type: functional, tissue-based
- EXPERIMENTAL CONDITIONS: Trachea
Decision: pA10 >= 7 yields fulfilled, all other cases yield not fulfilled.

// known answers, use as guide
[
  {
    "MOLECULE": "CC(C)NCC(O)CON=C1CCCCC1 (configuration not stated)",
    "LABEL CLASS": "not fulfilled"
  },
  {
    "MOLECULE": "CCC(CC)=NOCC(O)CNC(C)C (configuration not stated)",
    "LABEL CLASS": "fulfilled"
  }
]

Data request: Evaluate CCCC(CCC)=NOCC(O)CNC(C)C (configuration not stated) : pA10 at minimum 7?
Data returned: fulfilled

Data request: Reported pA10 at or above 7? COc1ccc(OC)c(C(O)C(C)NC(C)(C)C)c1 (configuration not stated)
Data returned: not fulfilled

Data request: Hello, I need to know if CC(C)NCC(O)CON=C1CCCC1 (configuration not stated) has measured pA10 not below 7. Thanks!
Data returned: not fulfilled

----------
Measured pA2 - pA10 by item
- TESTED TARGET: Beta-1 adrenergic receptor (Cavia porcellus)
- METHOD SUMMARY: Specific antagonistic activity difference against beta-1 adrenergic receptor of isolated guinea pig atria
- Type: functional

Use the examples below as a reference point.
[
  {
    "COMPOUND": "CC(C)C(=NOCC(O)CNC(C)(C)C)C(C)C (stereo unspecified)",
    "TESTED TARGET": "Beta-1 adrenergic receptor (Cavia porcellus)",
    "pA2 - pA10": 0.9
  },
  {
    "COMPOUND": "COc1ccc(OC)c(C(O)C(C)NC(C)(C)C)c1 (stereo unspecified)",
    "TESTED TARGET": "Beta-1 adrenergic receptor (Cavia porcellus)",
    "pA2 - pA10": 0.37
  },
  {
    "COMPOUND": "CC(C)(C)NCC(O)CON=C1CCCCC1 (stereo unspecified)",
    "TESTED TARGET": "Beta-1 adrenergic receptor (Cavia porcellus)",
    "pA2 - pA10": 0.78
  }
]

Data request: Record request: pA2 - pA10 value, item CC(C)(C)NCC(O)CON=C1CCCC1 (stereo unspecified)
Data returned: 0.69

Data request: Return reported pA2 - pA10; argument: CC(C)NCC(O)CON=C1CCCCC1 (stereo unspecified)
Data returned: 0.82

Data request: Param item = CC(C)NCC(O)CON=C(C(C)C)C(C)C (stereo unspecified) ; retrieve measured pA2 - pA10.
Data returned: 0.89

Data request: What value of pA2 - pA10 has been recorded for this entry: CCCC(CCC)=NOCC(O)CNC(C)(C)C (stereo unspecified)
Data returned: 0.85

Data request: # lookup: pA2 - pA10 of CCC(CC)=NOCC(O)CNC(C)(C)C (stereo unspecified)
Data returned: 0.71

Data request: Value lookup for pA2 - pA10; key = CC(C)NCC(O)CON=C1CCCC1 (stereo unspecified)
Data returned: 0.8

Data request: Quick one: pA2 - pA10 of CCCC(CCC)=NOCC(O)CNC(C)C (stereo unspecified) ?
Data returned: 0.55

Data request: # get_value(readout='pA2 - pA10', item= CCC(CC)=NOCC(O)CNC(C)C (stereo unspecified) )
Data returned: 0.78

----------
- TESTED TARGET: Beta-2 adrenergic receptor (Cavia porcellus, UniProt Q8K4Z4)
- Sequence (Q8K4Z4 whole entry): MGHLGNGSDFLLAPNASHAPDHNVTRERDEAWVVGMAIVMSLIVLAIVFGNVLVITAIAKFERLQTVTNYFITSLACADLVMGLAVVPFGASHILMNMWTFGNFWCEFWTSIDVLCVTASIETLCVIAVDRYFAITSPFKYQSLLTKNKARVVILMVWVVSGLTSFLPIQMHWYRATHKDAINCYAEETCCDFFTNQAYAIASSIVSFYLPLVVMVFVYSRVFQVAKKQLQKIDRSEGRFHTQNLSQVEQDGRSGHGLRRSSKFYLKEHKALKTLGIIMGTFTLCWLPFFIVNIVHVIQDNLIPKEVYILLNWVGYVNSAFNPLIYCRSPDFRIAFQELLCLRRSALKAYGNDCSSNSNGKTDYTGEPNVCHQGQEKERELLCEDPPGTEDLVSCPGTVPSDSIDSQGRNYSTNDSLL
- METHOD SUMMARY: Antagonistic activity against beta-2 adrenergic receptor on isolated guinea pig tracheal strips
- Type: functional, tissue-based, Trachea
- EXPERIMENTAL CONDITIONS: read-out: pA2 (converted)
Values of Kb strictly less than 10 nM map to criterion met, and values of at least 10 nM map to criterion not met.

Data request: Does this compound meet the criterion Kb < 10 nM? CCCC(CCC)=NOCC(O)CNC(C)C (stereo unspecified)
Data returned: criterion met

Data request: Consider CC(C)(C)NCC(O)CON=C1CCCCC1 (stereo unspecified) . Does its Kb lie strictly below 10 nM?
Data returned: criterion not met

Data request: Dear colleague, could you confirm whether Kb of CC(C)C(=NOCC(O)CNC(C)(C)C)C(C)C (stereo unspecified) falls below 10 nM? Thanks.
Data returned: criterion not met

Data request: Is the reported Kb for CCCC(CCC)=NOCC(O)CNC(C)(C)C (stereo unspecified) strictly below 10 nM?
Data returned: criterion met

Data request: Given the entry COc1ccc(OC)c(C(O)C(C)NC(C)(C)C)c1 (stereo unspecified) , would its reported Kb be below 10 nM?
Data returned: criterion not met

Data request: Identify whether the compound CCC(CC)=NOCC(O)CNC(C)(C)C (stereo unspecified) records Kb below 10 nM.
Data returned: criterion not met

Data request: Here's an entry: CCC(CC)=NOCC(O)CNC(C)C (stereo unspecified) . Is its Kb below 10 nM?
Data returned: criterion met

Data request: Please check: Kb for CC(C)NCC(O)CON=C1CCCCC1 (stereo unspecified) , strictly under 10 nM or not?
Data returned: criterion not met

Data request: Given the entry CC(C)(C)NCC(O)CON=C1CCCC1 (stereo unspecified) , would its reported Kb be below 10 nM?
Data returned: criterion not met

Data request: Strictly below 10 nM in Kb? CC(C)NCC(O)CON=C(C(C)C)C(C)C (stereo unspecified)
Data returned: criterion met

Data request: A record lists CC(C)NCC(O)CON=C1CCCC1 (stereo unspecified) . Is its Kb below 10 nM?
Data returned: criterion not met

----------
- TESTED TARGET: Beta-1 adrenergic receptor (Cavia porcellus) (UniProt B0FL73)
- Sequence (B0FL73 1-467): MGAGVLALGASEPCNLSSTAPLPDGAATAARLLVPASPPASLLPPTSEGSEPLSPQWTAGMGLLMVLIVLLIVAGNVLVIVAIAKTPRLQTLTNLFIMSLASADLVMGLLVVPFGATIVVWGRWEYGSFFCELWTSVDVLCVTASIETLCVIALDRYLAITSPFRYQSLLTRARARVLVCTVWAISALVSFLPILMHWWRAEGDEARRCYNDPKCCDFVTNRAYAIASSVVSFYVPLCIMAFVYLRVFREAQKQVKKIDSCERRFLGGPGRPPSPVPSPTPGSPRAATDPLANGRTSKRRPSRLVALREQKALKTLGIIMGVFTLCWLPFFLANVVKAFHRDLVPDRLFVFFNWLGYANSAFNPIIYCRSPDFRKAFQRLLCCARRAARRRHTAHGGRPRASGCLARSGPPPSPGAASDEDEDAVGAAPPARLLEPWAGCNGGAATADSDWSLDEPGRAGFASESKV
- METHOD SUMMARY: Antagonistic activity against beta-1 adrenergic receptor of isolated guinea pig atria
- Assay type: functional
Values of pA10 greater than or equal to 4 map to MET; values below map to NOT MET.

[
  {
    "MOLECULE": "CCC(CC)=NOCC(O)CNC(C)C (stereo unspecified)",
    "LABEL CLASS": "MET"
  }
]

Data request: Hello, I need to know if CC(C)(C)NCC(O)CON=C1CCCC1 (stereo unspecified) has measured pA10 not below 4. Thanks!
Data returned: NOT MET

Data request: Please check the record CCCC(CCC)=NOCC(O)CNC(C)(C)C (stereo unspecified) and state if its pA10 is at or above 4.
Data returned: MET

Data request: Test whether the molecule CC(C)NCC(O)CON=C(C(C)C)C(C)C (stereo unspecified) records pA10 of 4 or higher.
Data returned: NOT MET

Data request: hey, is pA10 for this one >= 4? CC(C)NCC(O)CON=C1CCCCC1 (stereo unspecified)
Data returned: NOT MET
